The reported numbers originate from PubChem BioAssay (NCI).

test system: HS 578T breast; test: NCI tumour cell line growth inhibition, 384-well format
GI50 reference
VALUE TYPE: GI50

[[record]]
molecule = "CS(=O)(=O)c1ccc(Oc2cc(F)cc(C#N)c2)c2c1[C@H](O)C(F)(F)C2"
target_or_test_system = "HS 578T breast"
value_reported = "> 100 µM"

[[record]]
molecule = "CCN(CC)CCCCNc1ncc2cc(-c3cc(OC)cc(OC)c3)c(NC(=O)NC(C)(C)C)nc2n1"
target_or_test_system = "HS 578T breast"
value_reported = "2.28 µM"

[[record]]
molecule = "COc1ccc(-c2nc(N3CCOCC3)c3sc(CN(C)c4ncc(C(=O)NO)cn4)cc3n2)cn1"
target_or_test_system = "HS 578T breast"
value_reported = "< 0.01 µM"

[[record]]
molecule = "OCC1OC(n2cnc3c2NC=NC[C@H]3O)CC1O (some centres undefined)"
target_or_test_system = "HS 578T breast"
value_reported = "> 100 µM"


* * *

system: MCF7 breast; experiment: NCI tumour cell line growth inhibition, 384-well format; in the data active = GI50 below about 0.43 µM; inactive = the rest
Classes used: Yes for active, No for inactive

[[record]]
compound = "COc1nc(N)nc2c1ncn2[C@@H]1O[C@H](CO)[C@@H](O)[C@@H]1O"
category = "No"

[[record]]
compound = "CC(C)n1c(=O)n(C)c2cnc3cc(F)c(-c4ccc(OCCCN5CCCCC5)nc4)cc3c21"
category = "No"

[[record]]
compound = "OCC1OC(n2cnc3c2NC=NC[C@H]3O)CC1O (some centres undefined)"
category = "No"

[[record]]
compound = "COc1ccc(-c2nc(N3CCOCC3)c3sc(CN(C)c4ncc(C(=O)NO)cn4)cc3n2)cn1"
category = "Yes"


* * *

tested on: SF-539 CNS; test: NCI tumour cell line growth inhibition, 384-well format; in the data active = GI50 below about 0.43 µM; inactive = the rest
Classes used: active, inactive

[[record]]
record_smiles = "COc1ccc(-c2nc(N3CCOCC3)c3sc(CN(C)c4ncc(C(=O)NO)cn4)cc3n2)cn1"
category = "active"

[[record]]
record_smiles = "CS(=O)(=O)c1ccc(Oc2cc(F)cc(C#N)c2)c2c1[C@H](O)C(F)(F)C2"
category = "inactive"

[[record]]
record_smiles = "COc1nc(N)nc2c1ncn2[C@@H]1O[C@H](CO)[C@@H](O)[C@@H]1O"
category = "inactive"

[[record]]
record_smiles = "CC(C)n1c(=O)n(C)c2cnc3cc(F)c(-c4ccc(OCCCN5CCCCC5)nc4)cc3c21"
category = "inactive"


* * *

TGI reference
test system: OVCAR-5 ovarian; assay: NCI tumour cell line growth inhibition, 384-well format
VALUE TYPE: TGI

[[record]]
compound = "CC(C)n1c(=O)n(C)c2cnc3cc(F)c(-c4ccc(OCCCN5CCCCC5)nc4)cc3c21"
target_or_test_system = "OVCAR-5 ovarian"
value_type = "TGI"
value_reported = "> 100 µM"

[[record]]
compound = "CS(=O)(=O)c1ccc(Oc2cc(F)cc(C#N)c2)c2c1[C@H](O)C(F)(F)C2"
target_or_test_system = "OVCAR-5 ovarian"
value_type = "TGI"
value_reported = "> 100 µM"

[[record]]
compound = "CCN(CC)CCCCNc1ncc2cc(-c3cc(OC)cc(OC)c3)c(NC(=O)NC(C)(C)C)nc2n1"
target_or_test_system = "OVCAR-5 ovarian"
value_type = "TGI"
value_reported = "21.6 µM"

[[record]]
compound = "OCC1OC(n2cnc3c2NC=NC[C@H]3O)CC1O (some centres undefined)"
target_or_test_system = "OVCAR-5 ovarian"
value_type = "TGI"
value_reported = "> 100 µM"

